Source of measurements: the EternaBench riboswitch data

Tested on: MS2 coat protein
Assay: apparent Kd, MS2 coat protein; higher = weaker binding; RNA-MaP array; FMN 200 µM where present
Details: ligand present: flavin mononucleotide; designed as: OFF switch for flavin mononucleotide
Answer No if apparent Kd is under 100 nM, and Yes if it is 100 nM or more.

Reported apparent Kd at or above 100 nM? GGAUCGAGUGUGAGGAUAUGCUGGUCCUUGGAUCAGCAGAAGGCACAUGAGGAUCACCCAUGUGAUAUCGAUCC Yes

Reported apparent Kd at or above 100 nM? CUCAUGUUAGGAUAUGCGCUCGACGUAGUGGUUGAGCUCUAGCAGAAGGAACAUGAGGAUCACCCAUGUUUGCA No

Reported apparent Kd at or above 100 nM? UGGUUGUGUGUCAGGAUAUGGUCUGGUGUUUCGGGCUAGAAGGGACAUGAGGAUCACCCAUGUGGCUGGUGCGC Yes

Reported apparent Kd at or above 100 nM? UCGCUGUCAGGAUAUCUUAUAUAGAACAUGAGGAUCACCCAUGUUCAUGUAUUCUGUGAGAGAGAAGGGACUCCUU No

Reported apparent Kd at or above 100 nM? GUAGGGUCAGGAUAUACGGGCGGAGGGAUGUAUUGUAGUUGGUAGAAGGGACAUGAGGAUCACCCAUGUAAGAA No

Reported apparent Kd at or above 100 nM? UAUAUAUAGUAAGGAUAUGUAAUUAUUUGAUAAACAGAAGGUACUGACAUGAGGAUCACCCAUGUUUUAGUGUGGGCAUGUAGA Yes

Reported apparent Kd at or above 100 nM? UUAUGUUUUGUAGGAUAUCAUUAGUUAUGUAUUAUAAUUGAAAUUUUGUUAUGAGAAGGACAUUUACAUGAGGAUCACCCAUGU No

---

Exercise: for every item that follows, state its recorded apparent Kd.
Tested on: MS2 coat protein
Assay: apparent Kd, MS2 coat protein; higher = weaker binding; RNA-MaP array
Conditions: ligand present: flavin mononucleotide; designed as: ON switch for flavin mononucleotide
Return type: number; implicit unit nM.

Reported MS2 coat protein apparent Kd for item CGAGGACAUGAGGAUCACCCAUGUGACCGUGCCAAAGGAUAUCACAGGAAAUAAUACAGUUGAGAAGGUUGAUCGG was 17.6

Reported MS2 coat protein apparent Kd for item AGCAAGACCGAGUCCAAUAACAUGAGGAUCACCCAUGUGUUCGAGGAUAUUAGGACUGAUGGGACUAAGAAGGCGAUCCCUUGU was 37.2

Reported MS2 coat protein apparent Kd for item AGACUCCUAGCAGGAUAUGUUCAAGGAACAAAGAGAACAUGAGGAUCACCCAUGUACACAUAUGAACAGAAGGGCUGAAGAAAA was 6.66

Reported MS2 coat protein apparent Kd for item CUCGAAUUAUCAGGAUAUCCACAAUUCGAAGAAGGAGAAGGGAUGGCAGGGCUAACAUGGAACAUGAGGAUCACCCAUGUGCAA was 9.94

---

System: MS2 coat protein
Experiment: apparent Kd, MS2 coat protein; higher = weaker binding; RNA-MaP array; FMN 200 µM where present
Conditions: ligand present: flavin mononucleotide; designed as: ON switch for flavin mononucleotide
Answer -1 if apparent Kd is under 10 nM, and 1 if it is 10 nM or more.

Reported apparent Kd at or above 10 nM? AGUUAAUAUCGAGGAUAUCCUCAUCUACAUGAGGAUCACCCAUGUAAGCAUGGAGAAGGCGAUAUUAACAGCAUGUUACAUGCA 1

Reported apparent Kd at or above 10 nM? GGGUACAUCGGAGGAUAUCAUGUACAUACAUGAGGAUCACCCAUGUCGAUGGAGACAUCGGAGAUUGAGAAGGCCGAUGUACCG -1

Reported apparent Kd at or above 10 nM? GCUCGUCGUGGAAGAGCAAAAGGACAGGAUAUCGCUUAAACAUGAGGAUCACCCAUGUCCGUUAACGAGAAGGGUCGAAUAAAU 1

Reported apparent Kd at or above 10 nM? UAGAAACAUGAGGAUCACCCAUGUGGGUUAAACACAGGAUAUCACGCCAAAAGAAAAGCGUGAGAAGGGUGACCGA 1

Reported apparent Kd at or above 10 nM? GUAGCUUAUGAGAAGGCGAUCAUGAAACAUGAUCGAGGAUAUCAUGUAAACAUGAGGAUCACCCAUGUAUGGGUAUUAUGCUAC 1

Reported apparent Kd at or above 10 nM? UUUUUAAAUAUAGGAUAUGGAAACAUGAGGAUCACCCAUGUAUGAUAAGAUAAAUUAUGAUAUAGCCAGAAGGAUAUUAUUUUU 1

Reported apparent Kd at or above 10 nM? AAUAAACUCACAGGAUAUAGCAGAGGUCGCGUGAACUUACAGACGACUAUGCUAGAAGGGUGACCACAUGAGGAUCACCCAUGU 1

Reported apparent Kd at or above 10 nM? UUAUGAGCGAUAGGAUAUACUGAGAUUGAAUGGGUAGAAGGAUCGAUCGUGUGGAAGACAUGAGGAUCACCCAUGUUACGGGCC 1

Reported apparent Kd at or above 10 nM? GUCGGAAACGACAAAAGUAUGGAUCCAGAAGGCAUGAACAUGAGGAUCACCCAUGUCUAAAGAUAUGAGGAUAUGGAUCCAUAC -1

Reported apparent Kd at or above 10 nM? UUAAUUAUACAAGGAUAUCUAUUGUUCUUUCGACUUACAUGAGGAUCACCCAUGUUAAUAUAUAUAGAGAAGGUGUAUUUUCAG 1

Reported apparent Kd at or above 10 nM? CUGACAGCGCAGAAGGGAGAUCCUACAUGAGGAUCACCCAUGUGGGCUCUCAGGAUAUGCACGUGUAUGCUGAAAGUAGCAUUG -1

Reported apparent Kd at or above 10 nM? GGUACCAUCACAGGAUAUGCUUUUCUUUGGGAAGCAGAAGGGUGUAACAUGAGGAUCACCCAUGUGGUACCAGGGCGUGAGCCC 1

Reported apparent Kd at or above 10 nM? CUCAAACAUGAGGAUCACCCAUGUGUUGUCAUGGGAGGAUAUCUAAGUUCGUUGUAUUCGGGAGAAGGCCUAUGUC 1
